ASSAYED_TARGET: HIV-1 JR-CSF Env T320A (HIV-1 isolate JR-CSF) (UniProt P20871)
ASSAY_EXPLANATION: cell-based or functional assay
Kindly state Fold IC50 increase relative to wild-type for each of the entries shown.
Give the value in fold but do not write fold after it.

# Fold IC50 increase relative to wild-type (binder: PGT-135 (antibody, V domains shown) VH: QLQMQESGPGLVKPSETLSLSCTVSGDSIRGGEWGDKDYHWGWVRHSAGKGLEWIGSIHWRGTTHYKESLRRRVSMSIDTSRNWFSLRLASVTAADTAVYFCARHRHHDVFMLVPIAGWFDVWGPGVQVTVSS VL: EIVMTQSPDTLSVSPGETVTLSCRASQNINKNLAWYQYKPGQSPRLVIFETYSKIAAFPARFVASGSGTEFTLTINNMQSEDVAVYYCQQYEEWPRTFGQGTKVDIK ) is 0.5

# Fold IC50 increase relative to wild-type (binder: PGT-123 (antibody, V domains shown) VH: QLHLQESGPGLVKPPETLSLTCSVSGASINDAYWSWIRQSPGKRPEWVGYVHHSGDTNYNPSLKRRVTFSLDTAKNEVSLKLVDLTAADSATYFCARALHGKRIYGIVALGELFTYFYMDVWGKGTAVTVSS VL: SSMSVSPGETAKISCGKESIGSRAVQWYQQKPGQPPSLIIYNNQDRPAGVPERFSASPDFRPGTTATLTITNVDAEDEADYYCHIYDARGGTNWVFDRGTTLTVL ) is 0.7

# Fold IC50 increase relative to wild-type (binder: PGT-125 (antibody, V domains shown) VH: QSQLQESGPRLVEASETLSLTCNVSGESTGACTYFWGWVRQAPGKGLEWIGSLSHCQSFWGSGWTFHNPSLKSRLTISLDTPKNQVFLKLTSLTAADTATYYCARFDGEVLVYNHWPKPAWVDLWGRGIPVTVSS VL: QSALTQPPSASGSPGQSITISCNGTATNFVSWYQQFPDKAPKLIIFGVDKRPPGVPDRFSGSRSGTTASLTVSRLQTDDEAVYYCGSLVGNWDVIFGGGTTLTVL ) is 0.8

Cited source for all entries: patent US20200024330A1
